Cited source for all entries: patent US20170022171A1

Dear all, this message contains pIC50 results, target or system mouse MMP-3 (Mus musculus, UniProt P28862).
pIC50: −log10 of the molar value.
recorded-metric: pIC50

>  <compound>
CCCCCOc1ccc(C(=O)[C@H]2CC[C@@H](Cn3nnc4ccc(C)cc4c3=O)[C@@H]2C(=O)O)cc1 (racemic)

>  <observed>
5.74

$$$$

a. O=C(O)[C@H]1[C@H](Cn2nnc3ccccc3c2=O)CC[C@@H]1C(=O)c1ccc(OCC2CCCC2)cc1 (racemic)
b. O=C(O)[C@@H]1[C@@H](Cn2nnc3ccc(C(F)(F)F)cc3c2=O)CC[C@H]1C(=O)c1ccc(OCC2CCCCC2)cc1 (single isomer, unassigned)
c. O=C(O)[C@@H]1[C@@H](Cn2nnc3ccc(C(F)(F)F)cc3c2=O)CC[C@H]1C(=O)c1ccc(SCc2ccc(Cl)c(Cl)c2)cc1 (single isomer, unassigned)
input: Your job: order these 3 records by pIC50, ascending. Write out the labels following the order that was asked for.
output: c, a, b
(c: 5.60, a: 5.89, b: 6.10)
